Numbers sourced from patent US20240325555A1.

Reported pEC50 values for the following binders.
# assayed.system: T1, human LIV-1 (human, UniProt Q13433 29-755)
# T1 construct: whole, on cells; also called H-LIV1
# T1 sequence (looked up): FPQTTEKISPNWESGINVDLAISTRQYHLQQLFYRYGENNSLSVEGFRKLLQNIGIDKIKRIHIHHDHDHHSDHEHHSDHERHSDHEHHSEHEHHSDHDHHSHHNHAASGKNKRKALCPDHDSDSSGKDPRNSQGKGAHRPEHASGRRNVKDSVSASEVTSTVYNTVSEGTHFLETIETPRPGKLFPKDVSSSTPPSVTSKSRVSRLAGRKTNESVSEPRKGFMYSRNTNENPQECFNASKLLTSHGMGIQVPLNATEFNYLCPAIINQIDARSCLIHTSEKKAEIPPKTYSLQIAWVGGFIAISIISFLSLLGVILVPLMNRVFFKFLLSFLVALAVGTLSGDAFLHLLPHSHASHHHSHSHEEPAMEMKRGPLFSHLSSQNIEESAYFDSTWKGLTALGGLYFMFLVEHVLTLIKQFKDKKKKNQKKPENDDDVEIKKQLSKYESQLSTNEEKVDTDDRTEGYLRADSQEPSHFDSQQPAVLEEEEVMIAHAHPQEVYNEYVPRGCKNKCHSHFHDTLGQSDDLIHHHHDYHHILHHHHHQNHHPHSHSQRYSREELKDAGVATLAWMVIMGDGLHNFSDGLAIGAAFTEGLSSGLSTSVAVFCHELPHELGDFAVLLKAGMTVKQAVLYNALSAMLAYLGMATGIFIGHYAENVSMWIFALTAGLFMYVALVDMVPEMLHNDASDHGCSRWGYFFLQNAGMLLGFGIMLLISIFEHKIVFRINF
# protocol.notes: FACS, BT20/H_LIV-1 Low cells
FYI, pEC50 means -log10 of a concentration in mol per litre.

Would you please look over these solved cases?
binder | pEC50
5D6B10.Z7 (antibody, V domains shown) VH: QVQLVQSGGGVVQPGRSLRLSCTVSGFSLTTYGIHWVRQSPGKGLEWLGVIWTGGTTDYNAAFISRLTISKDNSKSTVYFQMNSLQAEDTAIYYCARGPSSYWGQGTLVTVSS VL: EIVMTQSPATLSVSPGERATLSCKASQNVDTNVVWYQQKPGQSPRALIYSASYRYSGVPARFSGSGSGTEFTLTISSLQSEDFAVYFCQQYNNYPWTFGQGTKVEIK | 9.29
124H4D11.p2.z4 (antibody, V domains shown) VH: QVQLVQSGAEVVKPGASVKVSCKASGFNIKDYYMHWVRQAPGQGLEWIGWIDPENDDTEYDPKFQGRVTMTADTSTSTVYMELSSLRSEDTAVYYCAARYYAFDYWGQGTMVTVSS VL: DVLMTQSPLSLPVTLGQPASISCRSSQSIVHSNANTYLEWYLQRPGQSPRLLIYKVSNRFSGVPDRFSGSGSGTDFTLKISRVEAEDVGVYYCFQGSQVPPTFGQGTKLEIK | 9.77
124H4D11.p2.z4-MMAE (antibody, V domains shown, MMAE drug moiety conjugated; site and chain not stated, Antibody-drug conjugate of 124H4D11.p2.z4; human gamma 1/kappa) VH: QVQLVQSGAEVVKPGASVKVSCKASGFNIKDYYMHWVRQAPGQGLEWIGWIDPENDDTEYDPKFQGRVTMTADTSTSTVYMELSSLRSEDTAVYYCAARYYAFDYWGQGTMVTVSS VL: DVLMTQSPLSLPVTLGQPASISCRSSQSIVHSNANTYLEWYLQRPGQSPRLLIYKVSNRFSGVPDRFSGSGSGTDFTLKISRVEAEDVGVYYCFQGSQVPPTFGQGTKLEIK | 10.15

Form field pEC50, entry 5D6B10.z7-MMAE (antibody, V domains shown, MMAE drug moiety conjugated; site and chain not stated, Antibody-drug conjugate of 5D6B10.z7; human gamma 1/kappa) VH: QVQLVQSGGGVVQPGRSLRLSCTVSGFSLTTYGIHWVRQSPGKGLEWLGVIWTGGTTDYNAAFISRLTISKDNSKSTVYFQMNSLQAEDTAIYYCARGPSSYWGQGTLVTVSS VL: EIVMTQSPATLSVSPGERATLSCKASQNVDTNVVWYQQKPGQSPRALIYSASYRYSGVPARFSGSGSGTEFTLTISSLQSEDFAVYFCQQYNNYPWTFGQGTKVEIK : 9.30

Form field pEC50, entry 290F10G10.z2-MMAE (antibody, V domains shown, MMAE drug moiety conjugated; site and chain not stated, also called LM-001-MMAE) VH: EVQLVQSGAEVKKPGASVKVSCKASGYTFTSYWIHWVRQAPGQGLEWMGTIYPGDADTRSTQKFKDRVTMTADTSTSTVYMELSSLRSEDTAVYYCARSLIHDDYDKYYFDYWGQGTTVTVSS VL: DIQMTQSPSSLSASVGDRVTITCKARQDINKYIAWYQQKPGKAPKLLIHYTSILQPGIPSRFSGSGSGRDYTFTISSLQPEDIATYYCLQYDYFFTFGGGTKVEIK : 9.17

Form field pEC50, entry 124H4D11.p2.z4-Eribulin (antibody, V domains shown, Eribulin drug moiety conjugated; site and chain not stated, Antibody-drug conjugate of 124H4D11.p2.z4; human gamma 1/kappa) VH: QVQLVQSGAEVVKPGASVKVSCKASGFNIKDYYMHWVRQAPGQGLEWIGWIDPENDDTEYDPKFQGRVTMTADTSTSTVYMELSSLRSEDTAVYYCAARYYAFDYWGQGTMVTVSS VL: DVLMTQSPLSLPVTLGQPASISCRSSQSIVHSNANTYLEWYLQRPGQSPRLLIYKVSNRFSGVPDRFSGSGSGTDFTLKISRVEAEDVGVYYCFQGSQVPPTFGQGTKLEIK : 10.30
